This section lists log10 of Ki readings for UniProtKB P50406.
Hello, just confirming the data are log10 of Ki with units of nM.

• CN1CCN(c2ccc3[nH]nc(S(=O)(=O)c4ccc(F)cc4)c3c2)CC1 = 0.72
• O=S(=O)(c1ccc(Cl)cc1)c1n[nH]c2cc(N3CCNCC3)ccc12 = 2.04
• O=S(=O)(c1cccc2ccccc12)c1n[nH]c2cc(N3CCNCC3)ccc12 = 1.34
• CN1CCN(c2ccc3c(c2)c(S(=O)(=O)c2cccc4ccccc24)nn3C)CC1 = 0.23
• Cc1ccc(S(=O)(=O)c2n[nH]c3cccc(N4CCNCC4)c23)cc1 = 2.13

Query string: Quote log10 of Ki with test system UniProtKB P50406 for CC(C)n1nc(S(=O)(=O)c2cccc3ccccc23)c2cc(N3CCN(C)CC3)ccc21
Result string: 0.26

Query string: Quote log10 of Ki with test system UniProtKB P50406 for CN1CCN(c2ccc3[nH]nc(S(=O)(=O)c4cccc(F)c4)c3c2)CC1
Result string: 0.23

Query string: Quote log10 of Ki with test system UniProtKB P50406 for CN1CCN(c2ccc3[nH]nc(S(=O)(=O)c4cccc5ccccc45)c3c2)CC1
Result string: 0.20

Query string: Quote log10 of Ki with test system UniProtKB P50406 for O=S(=O)(c1cccc(F)c1)c1n[nH]c2cccc(N3CCNCC3)c12
Result string: 2.13

Query string: Quote log10 of Ki with test system UniProtKB P50406 for CN1CCN(c2ccc3[nH]nc(S(=O)(=O)c4cccs4)c3c2)CC1
Result string: 0.89

Query string: Quote log10 of Ki with test system UniProtKB P50406 for Cc1ccc(S(=O)(=O)c2n[nH]c3cc(N4CCNCC4)ccc23)cc1
Result string: 1.43

Query string: Quote log10 of Ki with test system UniProtKB P50406 for O=S(=O)(c1ccc(Cl)cc1)c1n[nH]c2cccc(N3CCNCC3)c12
Result string: 2.10

Query string: Quote log10 of Ki with test system UniProtKB P50406 for COc1ccc(S(=O)(=O)c2n[nH]c3cccc(N4CCNCC4)c23)cc1
Result string: 1.94

Query string: Quote log10 of Ki with test system UniProtKB P50406 for Cc1ccc(S(=O)(=O)c2n[nH]c3ccc(N4CCN(C)CC4)cc23)cc1
Result string: 0.69

Query string: Quote log10 of Ki with test system UniProtKB P50406 for CN1CCN(c2ccc3[nH]nc(S(=O)(=O)c4ccc(Cl)cc4)c3c2)CC1
Result string: 0.91

====

Assay Procedure: Oral bioavailability in rat at 10 mg/kg
Format: ADME, organism-based
Assay Context: in vivo
Reported Endpoint: bioavailability

Below: 2 molecules and their reported bioavailability.
• O=S(=O)(c1cccc2ccccc12)c1n[nH]c2ccc(N3CCNCC3)cc12 = > 20%
• CN1CCN(c2ccc3[nH]nc(S(=O)(=O)c4cccc5ccccc45)c3c2)CC1 = 5%

Query string: Provide one value: measured bioavailability of O=S(=O)(c1cccc2ccccc12)c1nn(Cc2ccccc2)c2ccc(N3CCNCC3)cc12
Result string: > 50%

====

System: UniProt:P50406
Assay Procedure: Antagonist activity at human cloned 5HT6 receptor expressed in human HeLa cells by cyclase assay
Flag rule - IC50 less than 40 nM flags label 1; the remaining entries get label 0.

Below, 2 compounds whose answers are already recorded.
• CN1CCN(c2ccc3[nH]nc(S(=O)(=O)c4cccs4)c3c2)CC1 = label 0
• CN1CCN(c2ccc3[nH]nc(S(=O)(=O)c4ccccc4F)c3c2)CC1 = label 0

Query string: For this compound, is IC50 lower than 40 nM? CN1CCN(c2ccc3[nH]nc(S(=O)(=O)c4cccc(F)c4)c3c2)CC1
Result string: label 0

Query string: For this compound, is IC50 lower than 40 nM? CN1CCN(c2cccc3c(S(=O)(=O)c4cccc5ccccc45)n[nH]c23)CC1
Result string: label 1

Query string: For this compound, is IC50 lower than 40 nM? Cc1cccc(S(=O)(=O)c2n[nH]c3ccc(N4CCN(C)CC4)cc23)c1
Result string: label 1

Query string: For this compound, is IC50 lower than 40 nM? COc1ccc(S(=O)(=O)c2n[nH]c3ccc(N4CCN(C)CC4)cc23)cc1
Result string: label 0

Query string: For this compound, is IC50 lower than 40 nM? COc1cccc(S(=O)(=O)c2n[nH]c3ccc(N4CCN(C)CC4)cc23)c1
Result string: label 0

Query string: For this compound, is IC50 lower than 40 nM? CN1CCN(c2ccc3[nH]nc(S(=O)(=O)c4ccc(Cl)cc4)c3c2)CC1
Result string: label 0

====

Assay Procedure: Solubility of the compound in water
Assay type: physicochemical
Reported Endpoint: solubility

Query string: Provide one value: measured solubility of O=S(=O)(c1cccc2ccccc12)c1n[nH]c2ccc(N3CCNCC3)cc12
Result string: > 100 µg/mL

====

System: D(2) dopamine receptor (Homo sapiens, UniProt P14416)
Sequence (P14416 whole entry): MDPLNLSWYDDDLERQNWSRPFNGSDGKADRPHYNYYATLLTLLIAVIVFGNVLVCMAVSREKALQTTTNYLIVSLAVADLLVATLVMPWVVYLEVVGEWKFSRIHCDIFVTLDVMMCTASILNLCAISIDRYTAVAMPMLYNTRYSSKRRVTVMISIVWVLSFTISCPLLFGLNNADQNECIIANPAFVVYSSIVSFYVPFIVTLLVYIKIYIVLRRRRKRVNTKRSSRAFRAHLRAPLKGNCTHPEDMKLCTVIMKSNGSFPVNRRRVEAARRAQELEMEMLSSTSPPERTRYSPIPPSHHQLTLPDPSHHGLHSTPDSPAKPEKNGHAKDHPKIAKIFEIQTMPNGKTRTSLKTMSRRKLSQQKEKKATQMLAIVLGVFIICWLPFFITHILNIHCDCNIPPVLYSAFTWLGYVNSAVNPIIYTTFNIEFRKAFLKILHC
Assay Procedure: Displacement of [3H]LSD from human cloned dopamine D2 receptor expressed in human HeLa cells
Flag rule - Ki less than 2000 nM flags met; the remaining entries get not met.

Below, 5 compounds whose answers are already recorded.
- CC(C)Cn1nc(S(=O)(=O)c2cccc3ccccc23)c2cc(N3CCNCC3)ccc21: met
- O=S(=O)(c1cccc2ccccc12)c1nn(Cc2ccccc2)c2ccc(N3CCNCC3)cc12: met
- CN1CCN(c2ccc3[nH]nc(S(=O)(=O)c4cccc5ccccc45)c3c2)CC1: met
- CN1CCN(c2ccc3[nH]nc(S(=O)(=O)c4ccccc4)c3c2)CC1: met
- O=S(=O)(c1cccc2ccccc12)c1n[nH]c2ccc(N3CCNCC3)cc12: not met

// next entry
Query string: For this compound, is Ki lower than 2000 nM? Cn1nc(S(=O)(=O)c2cccc3ccccc23)c2cc(N3CCNCC3)ccc21
Result string: not met

====

System: 5-hydroxytryptamine receptor 6 (Homo sapiens)
Sequence (P50406 whole entry): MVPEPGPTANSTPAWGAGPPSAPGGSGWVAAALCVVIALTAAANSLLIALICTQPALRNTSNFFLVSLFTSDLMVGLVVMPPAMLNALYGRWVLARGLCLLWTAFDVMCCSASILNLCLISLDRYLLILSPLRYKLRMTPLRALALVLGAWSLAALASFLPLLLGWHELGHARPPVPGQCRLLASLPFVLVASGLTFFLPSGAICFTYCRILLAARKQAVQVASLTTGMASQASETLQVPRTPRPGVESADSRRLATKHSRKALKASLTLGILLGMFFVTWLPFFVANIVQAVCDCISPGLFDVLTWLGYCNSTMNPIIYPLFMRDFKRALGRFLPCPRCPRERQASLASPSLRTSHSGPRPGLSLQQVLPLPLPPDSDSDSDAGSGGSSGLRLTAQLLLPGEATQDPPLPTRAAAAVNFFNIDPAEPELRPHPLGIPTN
Assay Procedure: Antagonist activity at human cloned 5HT6 receptor expressed in human HeLa cells by cyclase assay relative to control
Assay type: functional, cell-based
Reported Endpoint: Imax
Please report the result as a number followed by the unit.

Below: 10 compounds and their reported Imax.
- CN1CCN(c2ccc3[nH]nc(S(=O)(=O)c4ccc(F)cc4)c3c2)CC1: 98%
- CN1CCN(c2ccc3c(c2)c(S(=O)(=O)c2cccc4ccccc24)nn3C)CC1: 100%
- CN1CCN(c2ccc3[nH]nc(S(=O)(=O)c4ccccc4)c3c2)CC1: 99%
- CC(C)Cn1nc(S(=O)(=O)c2cccc3ccccc23)c2cc(N3CCN(C)CC3)ccc21: 100%
- CC(C)Cn1nc(S(=O)(=O)c2cccc3ccccc23)c2cc(N3CCNCC3)ccc21: 100%
- CN1CCN(c2ccc3[nH]nc(S(=O)(=O)c4cccc5ccccc45)c3c2)CC1: 100%
- CC(C)n1nc(S(=O)(=O)c2cccc3ccccc23)c2cc(N3CCN(C)CC3)ccc21: 98%
- CN1CCN(c2ccc3[nH]nc(S(=O)(=O)c4ccccc4F)c3c2)CC1: 100%
- CN1CCN(c2ccc3[nH]nc(S(=O)(=O)c4ccccc4Cl)c3c2)CC1: 100%
- COc1cccc(S(=O)(=O)c2n[nH]c3ccc(N4CCN(C)CC4)cc23)c1: 100%

Query string: Provide one value: measured Imax of CC(C)n1nc(S(=O)(=O)c2cccc3ccccc23)c2cc(N3CCNCC3)ccc21
Result string: 100%

Query string: Provide one value: measured Imax of Cc1cccc(S(=O)(=O)c2n[nH]c3ccc(N4CCN(C)CC4)cc23)c1
Result string: 100%

====

System: UniProt:P41595
Sequence (P41595 whole entry): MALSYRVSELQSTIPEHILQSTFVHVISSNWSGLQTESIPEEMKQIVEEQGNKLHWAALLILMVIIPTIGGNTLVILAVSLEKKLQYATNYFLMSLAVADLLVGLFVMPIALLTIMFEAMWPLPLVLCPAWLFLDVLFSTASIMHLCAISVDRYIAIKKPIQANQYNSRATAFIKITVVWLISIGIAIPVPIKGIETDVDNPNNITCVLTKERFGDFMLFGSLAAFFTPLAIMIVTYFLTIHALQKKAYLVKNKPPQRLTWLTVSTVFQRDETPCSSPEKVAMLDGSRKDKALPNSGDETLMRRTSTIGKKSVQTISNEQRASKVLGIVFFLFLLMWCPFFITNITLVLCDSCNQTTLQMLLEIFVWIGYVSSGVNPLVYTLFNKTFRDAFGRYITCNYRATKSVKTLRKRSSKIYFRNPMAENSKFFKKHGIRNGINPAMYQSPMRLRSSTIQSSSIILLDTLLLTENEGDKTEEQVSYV
Assay Procedure: Agonist activity at human recombinant 5HT2B receptor expressed in CHOK1 cells at 0.0001 to 10 uM by FLIPR assay
Format: functional, cell-based
Assay Context: CHO-K1
Calls of active or inactive are those of the source. The rule behind the calls is not given here.
Reported Endpoint: Activity

* Cn1nc(S(=O)(=O)c2cccc3ccccc23)c2cc(N3CCNCC3)ccc21 | inactive
* CC(C)Cn1nc(S(=O)(=O)c2cccc3ccccc23)c2cc(N3CCNCC3)ccc21 | inactive
* O=S(=O)(c1cccc2ccccc12)c1nn(Cc2ccccc2)c2ccc(N3CCNCC3)cc12 | inactive
* O=S(=O)(c1cccc2ccccc12)c1n[nH]c2ccc(N3CCNCC3)cc12 | inactive

Query string: Provide one value: measured Activity of CN1CCN(c2ccc3[nH]nc(S(=O)(=O)c4cccc5ccccc45)c3c2)CC1
Result string: inactive

Query string: Provide one value: measured Activity of CN1CCN(c2ccc3[nH]nc(S(=O)(=O)c4ccccc4)c3c2)CC1
Result string: inactive

Query string: Provide one value: measured Activity of CC(C)n1nc(S(=O)(=O)c2cccc3ccccc23)c2cc(N3CCNCC3)ccc21
Result string: inactive

====

System: 5-hydroxytryptamine receptor 1D (Homo sapiens)
Sequence (P28221 whole entry): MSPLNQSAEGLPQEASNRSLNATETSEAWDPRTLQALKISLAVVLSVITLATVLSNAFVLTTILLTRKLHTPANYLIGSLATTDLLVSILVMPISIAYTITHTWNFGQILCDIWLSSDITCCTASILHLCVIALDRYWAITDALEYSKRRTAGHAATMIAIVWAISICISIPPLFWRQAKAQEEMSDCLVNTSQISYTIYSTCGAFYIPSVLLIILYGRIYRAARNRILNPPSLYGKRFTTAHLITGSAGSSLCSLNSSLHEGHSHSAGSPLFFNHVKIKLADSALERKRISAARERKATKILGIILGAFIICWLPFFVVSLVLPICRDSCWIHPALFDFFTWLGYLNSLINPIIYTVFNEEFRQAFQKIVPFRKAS
Quick list: Ki per entry.

Below: 3 compounds and their reported Ki.
- Cn1nc(S(=O)(=O)c2cccc3ccccc23)c2cc(N3CCNCC3)ccc21: 2.76 µM
- CC(C)n1nc(S(=O)(=O)c2cccc3ccccc23)c2cc(N3CCNCC3)ccc21: > 5 µM
- CC(C)Cn1nc(S(=O)(=O)c2cccc3ccccc23)c2cc(N3CCNCC3)ccc21: > 5 µM

Query string: Provide one value: measured Ki of CN1CCN(c2ccc3[nH]nc(S(=O)(=O)c4ccccc4)c3c2)CC1
Result string: > 5 µM

Query string: Provide one value: measured Ki of O=S(=O)(c1cccc2ccccc12)c1nn(Cc2ccccc2)c2ccc(N3CCNCC3)cc12
Result string: > 5 µM
